Molecular target: HCV polymerase (NS5B) type 1a (Hepatitis C virus genotype 1a)
Construct: made in house; host or cells: Escherichia coli (by the 'similar method' of the 1b enzyme)
Assay: Assay of enzyme (HCV polymerase) inhibitory activity, type 1a enzyme
Type: biochemical, HCV type 1a (cloned from the blood of patients)
Details: HCV polymerase inhibitory activity IC50, 1a, type 1a enzyme
pIC50: −log10 of the molar value.
quantity kind: pIC50

[
  {
    "smiles representation": "Cn1ncc2sc(N3CCN(S(=O)(=O)c4ccc(OC(F)(F)F)cc4)[C@@H](C(=O)NCc4ccc(OC(F)(F)F)cc4)C3)nc2c1=O",
    "pIC50": "> 7.00"
  }
]

### Prompt Requested read-out pIC50, target or system HCV polymerase (NS5B) type 1a (Hepatitis C virus genotype 1a), entry O=C(O)c1cnc(N2CCN(S(=O)(=O)c3ccc(OC(F)(F)F)cc3)[C@@H](C(=O)NCc3ccc(OC(F)F)c(F)c3)C2)cn1
### Response > 7.00

### Prompt Moving on to the next compound: Cc1ncc2sc(N3CCN(S(=O)(=O)c4ccc(C(F)(F)F)cc4)[C@@H](C(=O)NCc4ccc(OC(F)F)cc4)C3)nc2n1
### Response > 7.00

###

Biological target: HCV polymerase (NS5B) type 1a (Hepatitis C virus genotype 1a)
Construct: made in house; host or cells: Escherichia coli (by the 'similar method' of the 1b enzyme)
Experiment: Assay of enzyme (HCV polymerase) inhibitory activity, type 1a enzyme
Assay type: biochemical, HCV type 1a (cloned from the blood of patients)
Settings: HCV polymerase inhibitory activity IC50, 1a, type 1a enzyme
# maps each entry to its IC50

Before answering, review these 2 worked examples.
[
  {
    "compound": "CCCCc1ccc(CNC(=O)[C@H]2CN(c3nc4cn[nH]c(=O)c4s3)CCN2S(=O)(=O)c2ccc(OC(F)(F)F)cc2)cc1 [Example 841]",
    "measured on": "HCV polymerase (NS5B) type 1a (Hepatitis C virus genotype 1a)",
    "quantity kind": "IC50",
    "meas value": "< 100 nM"
  },
  {
    "compound": "Cn1ncc2nc(N3CCN(S(=O)(=O)c4ccc(OC(F)(F)F)cc4)[C@@H](C(=O)NCc4ccc(OC(F)(F)F)cc4)C3)sc2c1=O [Example 904]",
    "measured on": "HCV polymerase (NS5B) type 1a (Hepatitis C virus genotype 1a)",
    "quantity kind": "IC50",
    "meas value": "100 to 1000 nM"
  }
]

Shift focus to the following entry.
### Prompt Which measured IC50 value corresponds to O=C(NCc1ccc(OC(F)(F)F)cc1)[C@H]1CN(c2nn3cnnc3s2)CCN1S(=O)(=O)c1ccc(OC(F)(F)F)cc1 [Example 922] ?
### Response < 100 nM

###

Biological target: HCV polymerase (NS5B) type 1a (Hepatitis C virus genotype 1a, UniProt P26664)
Construct: made in house; host or cells: Escherichia coli (by the 'similar method' of the 1b enzyme)
Assay: Assay of enzyme (HCV polymerase) inhibitory activity, type 1a enzyme
Assay type: biochemical, HCV type 1a (cloned from the blood of patients)
Conditions: HCV polymerase inhibitory activity (IC50), 1a, type 1a enzyme 1.5 μg/ml, 25° C., 60 min
quantity kind: IC50

Worked cases, answers included:
[
  {
    "compound": "CCC(F)(F)c1ccc(CNC(=O)[C@H]2CN(C(=O)Cc3nnn(C)n3)CCN2S(=O)(=O)c2ccc(OC(F)(F)F)cc2)cc1",
    "IC50": "< 100 nM"
  },
  {
    "compound": "CC(=O)N1CCN(S(=O)(=O)c2ccc(OC(F)(F)F)cc2)[C@@H](C(=O)NCC2(O)CCCCC2)C1",
    "IC50": "> 1000 nM"
  },
  {
    "compound": "CC(C)c1ccc(CNC(=O)[C@H]2CN(C(=O)NCCCC(=O)O)CCN2S(=O)(=O)c2ccc(C(F)(F)F)cc2)cc1",
    "IC50": "> 1000 nM"
  },
  {
    "compound": "CC(=O)N1CCN(S(=O)(=O)c2ccccc2Cl)C(C(=O)NCc2ccc(C(F)(F)F)cc2)C1 (stereo not drawn)",
    "IC50": "> 1000 nM"
  }
]

### Prompt Sample Cc1nc(N2CCN(S(=O)(=O)c3ccc(OC(F)(F)F)cc3)[C@@H](C(=O)NCc3ccc(C(C)C)cc3)C2)sc1C(=O)NCC(=O)O — what was its IC50?
### Response < 100 nM
